Task for the reader: assign each of the following molecules its reported pIC50.
Molecular target: ROCK1 (Homo sapiens, UniProt Q13464)
Construct: purchased Reaction Biology
Sequence (Q13464 whole entry): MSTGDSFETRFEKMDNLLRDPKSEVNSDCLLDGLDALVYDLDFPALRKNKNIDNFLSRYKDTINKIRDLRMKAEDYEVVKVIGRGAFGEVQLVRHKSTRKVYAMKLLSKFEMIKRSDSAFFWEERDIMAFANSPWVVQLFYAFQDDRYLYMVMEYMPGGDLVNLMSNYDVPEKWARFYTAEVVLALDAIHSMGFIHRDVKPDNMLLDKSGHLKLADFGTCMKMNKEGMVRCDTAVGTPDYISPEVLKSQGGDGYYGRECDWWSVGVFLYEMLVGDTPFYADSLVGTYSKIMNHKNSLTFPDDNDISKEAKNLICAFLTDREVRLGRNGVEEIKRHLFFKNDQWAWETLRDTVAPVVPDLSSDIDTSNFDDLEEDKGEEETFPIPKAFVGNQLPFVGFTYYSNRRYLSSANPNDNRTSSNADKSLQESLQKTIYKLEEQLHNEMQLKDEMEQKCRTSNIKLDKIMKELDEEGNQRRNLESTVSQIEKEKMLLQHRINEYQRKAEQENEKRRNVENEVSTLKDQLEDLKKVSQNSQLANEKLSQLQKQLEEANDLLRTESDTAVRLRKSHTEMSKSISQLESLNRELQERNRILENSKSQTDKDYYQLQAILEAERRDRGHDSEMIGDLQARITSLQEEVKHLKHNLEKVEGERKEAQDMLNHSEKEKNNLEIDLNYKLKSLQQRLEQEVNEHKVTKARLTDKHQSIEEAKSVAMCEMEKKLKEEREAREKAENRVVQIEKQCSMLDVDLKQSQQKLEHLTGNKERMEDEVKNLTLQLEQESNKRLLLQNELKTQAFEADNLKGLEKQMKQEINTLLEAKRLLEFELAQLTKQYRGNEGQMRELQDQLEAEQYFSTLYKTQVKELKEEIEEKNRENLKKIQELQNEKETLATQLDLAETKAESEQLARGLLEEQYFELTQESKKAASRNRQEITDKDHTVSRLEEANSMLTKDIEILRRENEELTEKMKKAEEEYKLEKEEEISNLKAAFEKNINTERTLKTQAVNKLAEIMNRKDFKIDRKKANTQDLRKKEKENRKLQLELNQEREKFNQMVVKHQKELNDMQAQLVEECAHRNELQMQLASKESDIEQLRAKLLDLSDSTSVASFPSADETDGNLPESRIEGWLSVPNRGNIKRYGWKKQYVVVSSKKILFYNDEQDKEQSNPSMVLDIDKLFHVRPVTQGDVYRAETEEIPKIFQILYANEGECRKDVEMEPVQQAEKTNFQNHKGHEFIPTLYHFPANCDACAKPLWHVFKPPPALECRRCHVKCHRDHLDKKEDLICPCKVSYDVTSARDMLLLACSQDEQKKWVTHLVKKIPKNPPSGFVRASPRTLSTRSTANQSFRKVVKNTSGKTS
Experiment: ROCK1 kinase assay (Reaction Biology Hot Spot kinase assay)
Type: biochemical
Settings: purified kinase, 33P-ATP (10 μM), P81 filter-binding method
pIC50: −log10 of the molar value.

Query: Would you please give the reported pIC50 of COc1cc(-n2cc(C)c(Nc3ccc4[nH]ncc4c3Cl)n2)ccc1OCC(=O)NC(C)C with ROCK1 (Homo sapiens, UniProt Q13464)?
Result: 5.52 to 6.52

Query: Find pIC50 for Cn1cc(-c2nc3cc(-n4ccc(Nc5ccc6[nH]ncc6c5Cl)n4)ccc3o2)cn1 on ROCK1 (Homo sapiens, UniProt Q13464) and write it down.
Result: 5.52 to 6.52

Query: # return pIC50 for COc1cc(-n2ccc(Nc3ccc4[nH]ncc4c3Cl)n2)ccc1OCC(=O)NC(C)C , test system: ROCK1 (Homo sapiens, UniProt Q13464)
Result: 5.52 to 6.52

Query: Jot down pIC50 (ROCK1 (Homo sapiens, UniProt Q13464)) of Clc1c(Nc2nnc(-c3cccc(-c4ncco4)c3)o2)ccc2[nH]ncc12 .
Result: > 6.52

Query: Give pIC50 for O=C(Nc1cccc(-n2ccc(Nc3ccc4[nH]ncc4c3)n2)c1)c1cccnc1 tested on ROCK1 (Homo sapiens, UniProt Q13464).
Result: 5.52 to 6.52

Query: Give ROCK1 (Homo sapiens, UniProt Q13464) pIC50 for the following molecule: Cn1cc(C(=O)Nc2cccc(-c3cc(Nc4ccc5[nH]ncc5c4Cl)no3)c2)cn1
Result: > 6.52

Query: Report value only: pIC50, ROCK1 (Homo sapiens, UniProt Q13464), COc1cc(-n2cc(C)c(Nc3ccc4[nH]ncc4c3Cl)n2)ccc1C(=O)NC1CCN(C)C1 (stereo not drawn)
Result: > 6.52

Query: For ROCK1 (Homo sapiens, UniProt Q13464), give pIC50 of the listed molecule: Cc1cn(-c2cccc(NC(=O)c3cnn(C)c3)c2)nc1Nc1ccc2[nH]ncc2c1
Result: > 6.52

Query: Answer with pIC50 of Cn1cc(C(=O)Nc2cccc(-n3nc(Nc4ccc5[nH]ncc5c4)c4ccccc43)c2)cn1 measured for ROCK1 (Homo sapiens, UniProt Q13464).
Result: 5.00 to 5.52

----------
Assignment: determine reported IC50 for the given compounds.

Query: For ROCK1 (Homo sapiens, UniProt Q13464), give the measured IC50 of the entry Cn1cc(C(=O)Nc2cc(-n3nc(Nc4ccc5[nH]ncc5c4Cl)c4ccccc43)cn(C)c2=O)cn1
Result: > 10 µM

Query: Fill in IC50 for COc1cc(-n2cc(C)c(Nc3ccc4[nH]ncc4c3Cl)n2)ccc1C(=O)N1CCCC1 tested with ROCK1 (Homo sapiens, UniProt Q13464).
Result: > 10 µM

Query: Specify the recorded IC50 for COc1cc(-n2nc(Nc3ccc4[nH]ncc4c3)c3ccccc32)ccc1OCC(=O)NC(C)C , system: ROCK1 (Homo sapiens, UniProt Q13464).
Result: 0.3 to 3 µM

Query: Output reported IC50 of the compound COc1cc(-n2ccc(Nc3ccc4[nH]ncc4c3)n2)ccc1OCC(=O)NC(C)C on ROCK1 (Homo sapiens, UniProt Q13464).
Result: > 10 µM

Query: Please look at COc1cc(-n2cc(C)c(Nc3ccc4[nH]ncc4c3Cl)n2)ccc1C(=O)NCC(F)(F)F and tell me its recorded IC50 on ROCK1 (Homo sapiens, UniProt Q13464).
Result: > 10 µM

Query: Enter recorded IC50 with ROCK1 (Homo sapiens, UniProt Q13464) for Cn1cc(C(=O)Nc2ccnc(-n3nc(Nc4ccc5[nH]ncc5c4Cl)c4ccccc43)c2)cn1 here.
Result: > 10 µM

Query: Give IC50 for this entry on ROCK1 (Homo sapiens, UniProt Q13464): Cc1cn(-c2ccc3c(c2)CCN(CC(C)C)C3=O)nc1Nc1ccc2[nH]ncc2c1Cl
Result: 3 to 10 µM

Query: Determine reported IC50 for Cn1cc(C(=O)Nc2cccc(-c3noc(Nc4ccc5[nH]ncc5c4Cl)n3)c2)cn1 ; test system: ROCK1 (Homo sapiens, UniProt Q13464).
Result: < 0.3 µM

Query: Report IC50 under test system ROCK1 (Homo sapiens, UniProt Q13464) for Cn1cc(C(=O)Nc2cccc(-c3noc(Nc4ccc5[nH]ncc5c4)n3)c2)cn1 .
Result: < 0.3 µM

Query: Give reported IC50 for Cn1cc(C(=O)Nc2cccc(-n3nc(Nc4ccc5[nH]ncc5c4Cl)c4ncccc43)c2)cn1 (ROCK1 (Homo sapiens, UniProt Q13464))
Result: 0.3 to 3 µM

Query: Jot down IC50 (ROCK1 (Homo sapiens, UniProt Q13464)) of O=C(Nc1cccc(-c2cc(Nc3ccc4[nH]ncc4c3)no2)c1)c1cccnc1 .
Result: 0.3 to 3 µM

Query: Give IC50; test system ROCK1 (Homo sapiens, UniProt Q13464); compound COc1cc(-n2cc(C)c(Nc3ccc4[nH]ncc4c3Cl)n2)ccc1C(=O)NC1CCCC1
Result: 0.3 to 3 µM

Query: Give IC50 only, for Cn1cc(C(=O)Nc2cccc(-n3nc(Nc4ccc5[nH]ncc5c4Cl)c4ccccc43)n2)cn1 , using ROCK1 (Homo sapiens, UniProt Q13464) data.
Result: < 0.3 µM

Query: Identify measured IC50 obtained with ROCK1 (Homo sapiens, UniProt Q13464) for Cn1cc(C(=O)Nc2cccc(-c3nc(Nc4ccc5[nH]ncc5c4)no3)c2)cn1 .
Result: < 0.3 µM

Query: Provide the reported IC50 (system: ROCK1 (Homo sapiens, UniProt Q13464)) for O=C(Nc1cccc(-c2nc(Nc3ccc4[nH]ncc4c3)no2)c1)c1cccnc1
Result: 0.3 to 3 µM

Query: Output reported IC50 of the compound COC(=O)CN1CCOc2cc(-n3cc(C)c(Nc4ccc5[nH]ncc5c4Cl)n3)ccc21 on ROCK1 (Homo sapiens, UniProt Q13464).
Result: > 10 µM

----------
pIC50: −log10 of the molar value.
For each record, write down the corresponding pIC50.

Query: Determine reported pIC50 for Cn1cc(C(=O)Nc2cccc(-c3nnc(Nc4ccc5[nH]ncc5c4Cl)o3)c2)cn1 [Example 55] ; test system: ROCK1 (Homo sapiens).
Result: > 6.52

Query: Quote pIC50 with test system ROCK1 (Homo sapiens) for Cn1cc(C(=O)Nc2cncc(-n3nc(Nc4ccc5[nH]ncc5c4Cl)c4ccccc43)c2)cn1 [Example 54]
Result: < 5.00

Query: Under ROCK1 (Homo sapiens): report pIC50 of COc1ncc(C(=O)Nc2cccc(-n3nc(Nc4ccc5[nH]ncc5c4)c4ccccc43)c2)cn1 [Example 25] .
Result: 5.52 to 6.52

Query: Quote ROCK1 (Homo sapiens) pIC50 for entry Cc1cn(-c2ccc3c(c2)CCN(S(=O)(=O)C2CC2)C3)nc1Nc1ccc2[nH]ncc2c1Cl [Example 82] .
Result: < 5.00

Query: Specify the recorded pIC50 for O=C(Cc1ccccn1)Nc1cccc(-n2nc(Nc3ccc4[nH]ncc4c3)c3ccccc32)c1 [Example 26] , system: ROCK1 (Homo sapiens).
Result: 5.00 to 5.52

Query: Jot down pIC50 (ROCK1 (Homo sapiens)) of O=C(Nc1cccc(-c2cc(Nc3ccc4[nH]ncc4c3)no2)c1)c1c[nH]cn1 [Example 34] .
Result: > 6.52

Query: Look up ROCK1 (Homo sapiens) data: pIC50 of Cn1cc(-c2nc3cc(-n4nc(Nc5ccc6[nH]ncc6c5Cl)c5ccccc54)ccc3o2)cn1 [Example 66] , then report it.
Result: < 5.00

Query: Report measured pIC50 on ROCK1 (Homo sapiens); entry: Cc1cn(-c2ccc3c(c2)CCN(C(=O)C2CCCC2)C3)nc1Nc1ccc2[nH]ncc2c1Cl [Example 81]
Result: < 5.00

----------
Target: ROCK2 (Homo sapiens)
Sequence (O75116 whole entry): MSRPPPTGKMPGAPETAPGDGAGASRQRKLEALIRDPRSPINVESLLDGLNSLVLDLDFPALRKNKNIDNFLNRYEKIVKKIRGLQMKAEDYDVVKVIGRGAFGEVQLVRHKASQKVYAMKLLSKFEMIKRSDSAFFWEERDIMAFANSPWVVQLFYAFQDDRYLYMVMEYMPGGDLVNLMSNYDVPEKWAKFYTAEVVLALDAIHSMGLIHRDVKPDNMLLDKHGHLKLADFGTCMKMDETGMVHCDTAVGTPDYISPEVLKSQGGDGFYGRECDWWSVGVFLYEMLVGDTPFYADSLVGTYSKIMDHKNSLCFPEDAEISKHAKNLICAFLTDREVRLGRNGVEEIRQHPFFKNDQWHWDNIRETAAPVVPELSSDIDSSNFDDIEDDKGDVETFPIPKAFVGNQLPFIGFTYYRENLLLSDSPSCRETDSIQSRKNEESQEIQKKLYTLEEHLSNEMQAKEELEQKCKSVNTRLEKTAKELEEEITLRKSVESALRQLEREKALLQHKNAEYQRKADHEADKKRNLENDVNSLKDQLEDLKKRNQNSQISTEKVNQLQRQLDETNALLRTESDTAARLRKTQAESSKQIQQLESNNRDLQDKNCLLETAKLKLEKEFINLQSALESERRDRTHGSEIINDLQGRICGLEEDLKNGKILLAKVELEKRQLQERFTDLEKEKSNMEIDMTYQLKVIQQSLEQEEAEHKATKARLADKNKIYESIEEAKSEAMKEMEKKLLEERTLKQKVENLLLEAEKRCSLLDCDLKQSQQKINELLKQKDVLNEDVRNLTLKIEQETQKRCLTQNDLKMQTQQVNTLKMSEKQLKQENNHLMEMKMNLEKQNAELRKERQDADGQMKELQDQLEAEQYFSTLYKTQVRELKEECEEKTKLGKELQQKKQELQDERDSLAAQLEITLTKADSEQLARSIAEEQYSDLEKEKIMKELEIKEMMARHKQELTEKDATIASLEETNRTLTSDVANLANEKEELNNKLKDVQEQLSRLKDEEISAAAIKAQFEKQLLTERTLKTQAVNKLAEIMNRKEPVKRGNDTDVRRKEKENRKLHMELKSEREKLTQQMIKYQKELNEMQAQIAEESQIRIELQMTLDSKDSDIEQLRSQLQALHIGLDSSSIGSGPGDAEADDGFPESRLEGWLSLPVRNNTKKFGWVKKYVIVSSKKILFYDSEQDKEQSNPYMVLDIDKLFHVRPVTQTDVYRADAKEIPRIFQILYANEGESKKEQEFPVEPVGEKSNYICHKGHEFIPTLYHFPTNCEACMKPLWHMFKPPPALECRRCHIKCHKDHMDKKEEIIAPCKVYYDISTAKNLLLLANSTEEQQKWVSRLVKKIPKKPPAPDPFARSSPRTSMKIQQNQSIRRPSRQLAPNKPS
Give IC50 for every item shown.

Query: Give the measured IC50 for Clc1c(Nc2nnc(-c3cccc(-c4ncco4)c3)o2)ccc2[nH]ncc12 [Example 50]
Result: < 300 nM

Query: Find the measured IC50 of COc1cc(-n2cc(C)c(Nc3ccc4[nH]ncc4c3Cl)n2)ccc1C(=O)NCC(F)(F)F [Example 88] and report it.
Result: < 300 nM

Query: Please give the documented IC50 of COc1cc(-n2cc(C)c(Nc3ccc4[nH]ncc4c3Cl)n2)ccc1C(=O)N1CCCC1 [Example 89]
Result: 300 to 3000 nM

Query: Assign IC50 to the following record: O=C(Nc1cccc(-n2nc(Nc3ccc4[nH]ncc4c3)c3ccccc32)c1)c1c[nH]cn1 [Example 22]
Result: 300 to 3000 nM

Query: Kindly indicate its recorded IC50. Item: O=C(Nc1cccc(-n2ccc(Nc3ccc4[nH]ncc4c3)n2)c1)c1cccnc1 [Example 6]
Result: 300 to 3000 nM

Query: Report IC50 for O=C(Nc1cccc(-c2nc(Nc3ccc4[nH]ncc4c3)no2)c1)c1cn[nH]c1 [Example 40]
Result: < 300 nM

Query: Look up IC50 of Cn1cc(-c2nnc(Nc3ccc4[nH]ncc4c3Cl)o2)cc(NC(=O)c2ccccc2F)c1=O [Example 52] and report it.
Result: < 300 nM

Query: State its IC50: COc1cc(-c2nc(Nc3ccc4[nH]ncc4c3Cl)no2)ccc1OCC(=O)NC(C)C [Example 73]
Result: < 300 nM

Reference for the values: patent US20240368132A1
